These measurements were taken from patent US20250289893A1.

molecular target: T1, human CD1a expressed on cells (human, UniProt P06126 17-327; P61769 21-119); assay: flow cytometry, MOLT4 cells, 31.6 µg/ml antibody
T1 construct: also called HEK - CD1a; C1R - CD1a
Hi there, I'd appreciate the recorded Fluorescence Intensity Geomean (normalized to background) for every entry that follows.
// note: answer is a bare numeric in fold over background

Quick one: Fluorescence Intensity Geomean (normalized to background) for 110 (VR12112) (antibody, V domains shown, also called OX110; antibody 110) VH: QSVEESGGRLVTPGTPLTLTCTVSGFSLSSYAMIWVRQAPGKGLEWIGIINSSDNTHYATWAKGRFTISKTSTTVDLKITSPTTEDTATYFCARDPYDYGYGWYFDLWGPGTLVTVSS VL: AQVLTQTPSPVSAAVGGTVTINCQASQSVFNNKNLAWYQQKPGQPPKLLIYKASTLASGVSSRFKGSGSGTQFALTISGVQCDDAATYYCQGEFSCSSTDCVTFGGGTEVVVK ?
7.5

Quick one: Fluorescence Intensity Geomean (normalized to background) for 77A (VR11851) (antibody, V domains shown, also called OX77a; antibody 77a) VH: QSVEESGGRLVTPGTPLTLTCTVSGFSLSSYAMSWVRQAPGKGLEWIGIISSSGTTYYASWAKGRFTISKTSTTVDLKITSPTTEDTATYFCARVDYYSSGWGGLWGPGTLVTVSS VL: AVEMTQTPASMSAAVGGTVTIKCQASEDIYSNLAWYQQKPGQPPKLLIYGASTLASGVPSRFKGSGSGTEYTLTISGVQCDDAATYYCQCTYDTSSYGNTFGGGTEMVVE ?
2.2

Quick one: Fluorescence Intensity Geomean (normalized to background) for 111 (VR12113) (antibody, V domains shown, also called OX111) VH: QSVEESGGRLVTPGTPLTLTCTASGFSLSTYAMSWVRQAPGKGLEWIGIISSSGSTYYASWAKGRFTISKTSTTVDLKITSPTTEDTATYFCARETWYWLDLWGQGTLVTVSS VL: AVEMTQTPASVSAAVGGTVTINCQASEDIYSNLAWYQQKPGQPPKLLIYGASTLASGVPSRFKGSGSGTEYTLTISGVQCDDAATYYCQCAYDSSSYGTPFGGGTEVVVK ?
5.4

Quick one: Fluorescence Intensity Geomean (normalized to background) for 116 (VR12117) (antibody, V domains shown, also called OX116) VH: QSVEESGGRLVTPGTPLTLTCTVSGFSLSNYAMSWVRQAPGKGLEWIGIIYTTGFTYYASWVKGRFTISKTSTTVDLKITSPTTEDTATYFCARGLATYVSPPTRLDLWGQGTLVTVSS VL: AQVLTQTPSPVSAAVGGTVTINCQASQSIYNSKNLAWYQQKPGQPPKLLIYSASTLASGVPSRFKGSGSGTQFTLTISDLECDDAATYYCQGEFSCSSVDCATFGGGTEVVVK ?
5.6
